- SYSTEM UNDER TEST: recombinant human Lp-PLA2 (Homo sapiens)
- EXPERIMENT DESCRIPTION: (1a) PED6 assay, recombinant human Lp-PLA2 (rhLp-PLA2)
- Type: biochemical
- CONDITION INFO: Examples 1-167 and 413-430 were tested here, one experiment or average of multiple experiments, read-out: rhLp-PLA2 (pIC50) (converted)
- Excerpt: (1) Recombinant Human Lp-PLA2 Assays (rhLp-PLA2) N-((6-(2,4-Dinitrophenyl)amino)-hexanoyl)-2-(4,4-difluoro-5,7-dimethyl-4-bora-3a,4a-diaza-s-indacene-3-pentanoyl)-1-hexadecanoyl-sn-glycero-3-phosphoethanolamine, triethylammonium salt (PED6) is a commercially available fluorescently-labeled phospholipid, which is commercially available from Invitrogene and Molecular Probes. […] Upon cleavage with Lp-PLA2, the Bodipy FL group is liberated and then may result in an increase in fluorescence. […]
Consider the following compounds; for each one, report its IC50.

IN: Item O=c1nc(OCc2cc(F)c(Oc3ccnc(C(F)(F)F)c3)c(F)c2)cc2n1C[C@H]1CCCN21 has what recorded IC50?
OUT: ≤ 1 nM

IN: And N#Cc1cc(Oc2ccc(COc3cc4n(c(=O)n3)CC3CCCCN43)cc2F)cc(C(F)(F)F)c1 (stereo not shown) ?
OUT: ≤ 1 nM

IN: Can you handle O=c1nc(OCc2cc(F)c(Oc3ccc(F)c(F)c3)c(F)c2)cc2n1C[C@@H]1CCCN21 next?
OUT: ≤ 100 nM

IN: Also N#Cc1cc(COc2cc3n(c(=O)n2)CC2CCCCN32)ccc1Oc1ccc(C(F)(F)F)cc1 (stereo not shown) ?
OUT: ≤ 1 nM

IN: And O=c1nc(OCc2cc(F)c(Oc3ccc(C(F)(F)F)nc3)c(F)c2)cc2n1CC1CCCCN21 (stereo not shown) [Example E49] ?
OUT: ≤ 1 nM

IN: Queued: O=c1nc(OCc2cc(F)c(Oc3cnc(C(F)(F)F)nc3)c(F)c2)cc2n1CC1CCCN21 (stereo not shown)
OUT: ≤ 1 nM

IN: Request: O=c1nc(OCc2cc(F)c(OC3CCCC(F)(F)C3)c(F)c2)cc2n1C[C@@H]1CCCN21 (stereo partly shown)
OUT: ≤ 100 nM

* * *

- SYSTEM UNDER TEST: recombinant human Lp-PLA2 (Homo sapiens)
- Sequence (Q13093 22-441): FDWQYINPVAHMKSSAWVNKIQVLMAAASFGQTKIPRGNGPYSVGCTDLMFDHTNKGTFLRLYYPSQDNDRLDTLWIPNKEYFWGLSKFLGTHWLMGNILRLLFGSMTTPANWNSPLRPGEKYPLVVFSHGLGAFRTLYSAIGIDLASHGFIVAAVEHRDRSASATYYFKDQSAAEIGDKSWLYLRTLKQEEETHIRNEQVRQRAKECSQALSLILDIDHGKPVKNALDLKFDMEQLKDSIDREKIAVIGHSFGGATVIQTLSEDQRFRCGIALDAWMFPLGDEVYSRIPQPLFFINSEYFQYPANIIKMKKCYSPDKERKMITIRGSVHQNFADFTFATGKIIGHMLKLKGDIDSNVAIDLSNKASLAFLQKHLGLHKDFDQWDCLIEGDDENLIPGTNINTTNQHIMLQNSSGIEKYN
- EXPERIMENT DESCRIPTION: (1a) PED6 assay, recombinant human Lp-PLA2 (rhLp-PLA2)
- Assay type: biochemical
- CONDITION INFO: Examples 1-167 and 413-430 were tested here, one experiment or average of multiple experiments, read-out: rhLp-PLA2 (pIC50) (converted)
QUANTITY MEASURED: IC50

IN: Given O=c1nc(OCc2cccc(F)c2)cc2n1C[C@H]1CCCN21 [Example E102] , state its recorded IC50.
OUT: ≤ 100 nM

IN: Continue with O=c1nc(OCc2cccc(F)c2F)cc2n1C[C@@H]1COCCN21 [Example E131]
OUT: ≤ 100 nM

IN: Try this compound too: O=c1nc(OCc2cc(F)c(Oc3cnc(C(F)(F)F)nc3)c(F)c2)cc2n1CC1COCCN21 (centres unmarked) [Example E110]
OUT: 0.501 nM

IN: Input CCCn1cc(Oc2c(F)cc(COc3cc4n(c(=O)n3)C[C@H]3COCCN43)cc2F)cn1 [Example E112]
OUT: ≤ 1 nM

IN: And what about the compound Cc1ccc(Oc2c(F)cc(COc3cc4n(c(=O)n3)C[C@@H]3COCN43)cc2F)cn1 [Example E157] ?
OUT: ≤ 100 nM

IN: Please give the result for N#Cc1cc(COc2cc3n(c(=O)n2)CC2CCCCN32)ccc1Oc1cncc(C(F)(F)F)c1 (centres unmarked) [Example E10] too.
OUT: ≤ 1 nM

IN: What about this compound? O=c1nc(OCc2cc(F)c(F)c(F)c2)cc2n1C[C@@H]1COCCN21 [Example E123]
OUT: ≤ 100 nM

IN: Next compound up: O=c1nc(OCc2cc(F)c(F)c(F)c2)cc2n1C[C@H]1COCN21 [Example E146]
OUT: ≤ 100 nM

IN: What do you have for CN1c2cc(OCc3cccc(F)c3)nc(=O)n2CC12CCCCC2 [Example 417] ?
OUT: ≤ 100 nM

IN: Field entry: O=c1nc(OCc2cc(F)cc(F)c2)cc2n1C[C@H]1CCCN21 [Example E103]
OUT: ≤ 100 nM

IN: Now the same for O=c1nc(OCc2ccc(F)c(C(F)(F)F)c2)cc2n1CC1CCCCN21 (centres unmarked) [Example E13]
OUT: ≤ 10000 nM

IN: Cool, now O=c1nc(OCc2ccc(Oc3ccc(C(F)(F)F)nc3)c(F)c2)cc2n1CC1CCCCN21 (centres unmarked) [Example E38]
OUT: ≤ 1 nM

IN: Again, but for O=c1nc(OCc2cc(F)c(Oc3ccnc(C(F)(F)F)c3)c(F)c2)cc2n1C[C@H]1CCOCN21 [Example E135]
OUT: ≤ 1 nM

IN: Same read-out for N#Cc1cccc(COc2cc3n(c(=O)n2)C[C@@H]2CCCCN32)c1 [Example E33] ?
OUT: ≤ 100 nM

IN: Check CN1c2cc(OCc3ccc(F)cc3F)nc(=O)n2CC12CCCC2 [Example 419] too.
OUT: ≤ 100 nM

IN: Try the compound CN1c2cc(OCc3cc(F)c(F)c(F)c3)nc(=O)n2CC12CCCCC2 [Example 422]
OUT: ≤ 100 nM

IN: Another: CCn1cc(Oc2c(F)cc(COc3cc4n(c(=O)n3)CC3CCCN43)cc2F)cn1 (centres unmarked) [Example E64]
OUT: ≤ 100 nM

* * *

Give measured IC50 for each item. Keep answers brief.
- SYSTEM UNDER TEST: Lp-PLA2 in human plasma (Homo sapiens, UniProt Q13093)
- Construct: from tissue; host or cells: pooled human plasma
- EXPERIMENT DESCRIPTION: (3a) Lp-PLA2 human plasma Thio-PAF assay
- Type: biochemical
- CONDITION INFO: (3a) Thio-PAF assay, pooled human plasma; Examples 1-265 and 413-430 were tested here; read-out: pIC50 in the Lp-PLA2 human plasma assay (converted)

IN: So what's the measured IC50 for this one? O=c1nc(OCc2cc(F)c(F)c(F)c2)cc2n1CC1CCCCN21 (centres unmarked) [Example E2]
OUT: ≤ 0.1 µM

IN: What do you get for CCCn1cc(Oc2c(F)cc(COc3cc4n(c(=O)n3)C[C@@H]3COCCN43)cc2F)cn1 [Example E122] ?
OUT: ≤ 10 µM

IN: # repeat for O=c1nc(OCc2cc(F)cc(Cl)c2)cc2n1CC1CCCCN21 (centres unmarked) [Example E29]
OUT: ≤ 10 µM

IN: Try this compound too: CCCn1cc(Oc2c(F)cc(COc3cc4n(c(=O)n3)C[C@H]3COCN43)cc2F)cn1 [Example E150]
OUT: ≤ 0.1 µM

IN: Repeat for the following compound: O=c1nc(OCc2cccc(F)c2F)cc2n1CC1OCCN21 (centres unmarked) [Example E187]
OUT: ≤ 10 µM

IN: Next: O=c1nc(OCc2cccc(F)c2)cc2n1C[C@@H]1COCN21 [Example E171]
OUT: ≤ 10 µM

IN: Same thing, different compound: O=c1nc(OCc2cc(F)c(OC3(CCF)CC3)c(F)c2)cc2n1C[C@@H]1CCOCN21 [Example E140]
OUT: ≤ 10 µM

IN: Follow-up item: N#Cc1ccc(CCOc2cc3n(c(=O)n2)C[C@H]2CCCN32)cc1 [Example E254]
OUT: ≤ 10 µM

* * *

- SYSTEM UNDER TEST: recombinant human Lp-PLA2 (Homo sapiens)
- EXPERIMENT DESCRIPTION: (1a) PED6 assay, recombinant human Lp-PLA2 (rhLp-PLA2)
- Assay type: biochemical
- CONDITION INFO: Examples 1-167 and 413-430 were tested here, one experiment or average of multiple experiments, read-out: rhLp-PLA2 (pIC50) (converted)
Can you tell me IC50 for the items I'm about to list?

IN: Item CCn1cc(Oc2c(F)cc(COc3cc4n(c(=O)n3)C[C@H]3COCN43)cc2F)cn1 with recombinant human Lp-PLA2 (Homo sapiens) - IC50?
OUT: ≤ 100 nM

IN: Entry O=c1nc(OCc2cc(F)c(Oc3ccc(C(F)(F)F)nc3)c(F)c2)cc2n1C[C@@H]1CCCN21 please
OUT: ≤ 100 nM

IN: One more compound: O=c1nc(OCc2cccc(F)c2)cc2n1C[C@H]1COCN21
OUT: ≤ 100 nM

IN: Also, CCCCN1CC(Oc2c(F)cc(COc3cc4n(c(=O)n3)CC3CCCN43)cc2F)C1 (stereo not shown) please.
OUT: ≤ 100 nM

IN: Then what about the compound O=c1nc(OCc2cc(F)c(Oc3ccc(C(F)(F)F)nc3)c(F)c2)cc2n1CC1CCCN21 (stereo not shown) ?
OUT: ≤ 1 nM

IN: Queued: O=c1nc(OCc2ccc(Oc3cnc(C(F)(F)F)nc3)c(F)c2)cc2n1C[C@H]1CCCN21
OUT: ≤ 100 nM

IN: What about this compound? O=c1nc(OCc2cc(F)c(OC3CCCC(F)(F)C3)c(F)c2)cc2n1CC1CCCN21 (stereo not shown)
OUT: ≤ 100 nM

IN: Also, O=c1nc(OCc2cc(F)cc(Cl)c2)cc2n1CC1CCCCN21 (stereo not shown) please.
OUT: ≤ 100 nM

IN: Moving on to O=c1nc(OCc2cc(F)c(Oc3cnc(C(F)(F)F)nc3)c(F)c2)cc2n1C[C@@H]1CCCN21
OUT: ≤ 1 nM

IN: Also O=c1nc(OCc2ccc(F)cc2F)cc2n1C[C@H]1CCCCN21 , if possible.
OUT: ≤ 100 nM

IN: Thanks! And O=c1nc(OCc2cc(F)c(F)cc2F)cc2n1C[C@@H]1CCCCN21 ?
OUT: ≤ 100 nM

IN: Same again, this time with O=c1nc(OCc2cccc(F)c2)cc2n1C[C@@H]1COCCN21
OUT: ≤ 100 nM

IN: And what about the compound O=c1nc(OCc2cc(F)c(F)c(F)c2)cc2n1CC1CCCN21 (stereo not shown) ?
OUT: ≤ 100 nM

IN: Try the compound O=c1nc(OCc2cc(F)c(Oc3ccnc(C(F)(F)F)c3)c(F)c2)cc2n1CC1OCCN21 (single isomer, unassigned) [Example E165]
OUT: ≤ 100 nM

IN: Okay, and N#Cc1cc(COc2cc3n(c(=O)n2)CC2CCCN32)ccc1Oc1cc(F)cc(F)c1 (stereo not shown) ?
OUT: ≤ 1 nM

IN: For O=c1nc(OCc2ccc(F)cc2F)cc2n1C[C@@H]1CCCCN21 then?
OUT: ≤ 100 nM
